MEASUREMENT_TARGET: TJP1_2, Q07157
Sequence (Q07157 181-274): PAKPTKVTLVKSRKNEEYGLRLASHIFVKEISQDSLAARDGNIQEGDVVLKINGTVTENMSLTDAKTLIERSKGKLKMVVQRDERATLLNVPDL
ASSAY_EXPLANATION: holdup assay
Design: key: below the threshold = too weak to quantify, mostly under pKd 3.1 to 4
ASSAY_CONDITIONS: plain residues with an end cap or a label only (N-terminal biotin on a linker: ado-ado)
TEST_READOUT: pKd

Please review the entries below; each comes with its answer.
{"BINDER": "GIKKITSTAL [RPS6KA3, P51812]", "pKd": "below the threshold"}
{"BINDER": "DDASLPVSDV [PLEKHA1, Q9HB21]", "pKd": "below the threshold"}
{"BINDER": "PTPDLPQTRV [KLHDC7A, Q5VTJ3]", "pKd": "below the threshold"}
{"BINDER": "EDLEDEWEVI [TECPR2, O15040]", "pKd": "below the threshold"}
{"BINDER": "EKCGKEFSEF [PRKACA, P17612]", "pKd": "below the threshold"}
{"BINDER": "GTGYDRKDYV [CLDN3, O15551]", "pKd": 3.6}
{"BINDER": "QKAPTKEFYA [SDC2, P34741]", "pKd": "below the threshold"}
{"BINDER": "EDGESWEYQI [TRPV6, Q9H1D0]", "pKd": 3.56}

Note pKd for the binder shown: SRSVVESDEL [MYPN, Q86TC9] 3.51

Please supply the value of reported pKd for the item LESTTVGTSV [KARS1, Q15046] below the threshold

Item NIAESLESLV [PTPRZ1, P23471] : provide pKd below the threshold

Please give measured pKd of the following entry: IDESKKEWLI [CNTNAP2, Q9UHC6] 3.5

Let me know recorded pKd for NVYGIESVKI [GRIA2, P42262] , thanks. below the threshold

Please report the measured pKd for AQRARSPSDV [GPR12, P47775] below the threshold

State its pKd: PPGKHLVTEV [KCNA7, Q96RP8] below the threshold

Report pKd, nothing else, for this binder: KSRVAFFEEL [NF2, P35240] 3.51

Please indicate pKd recorded for APIAGFSSFV [SDK2, Q58EX2] below the threshold
